System: BT-549 breast
Protocol Text: NCI-60 one-dose screen, 48 h (100 = growth as untreated, 0 = no growth, -100 = all killed)
Details: 10 µM unless noted
This is part of a sample that, as a whole, favours compounds with a hit. Of some 83,000 tested, about 20% had one in any assay.
Metric: growth (%)

>>> observed("COc1cccc(CNc2c3ccccc3nc3ccccc23)c1")
68.7
>>> observed("O=S(=O)(NCCCNc1nccc(-c2c(-c3cccc(F)c3)nc3occn23)n1)c1ccc(F)cc1")
69.4
>>> observed("CCCCNc1nnc2n(Cc3ccccc3)c(=O)c3c4c(sc3n12)CCCC4")
56.3
>>> observed("Cc1ccc(/C=C/C(=O)Nc2ncc(Cc3ccc(F)cc3)s2)o1")
68.9
>>> observed("CCOC(=O)C(=CNc1cnc(Nc2ccc(N3CCOCC3)cc2)nc1Oc1ccc(OC)cc1)C(=O)OCC")
77.3
>>> observed("CCOC(=O)c1c(C)nc2c(c1N)/C(=C/c1ccc(OC)cc1)C(=O)N2Cc1ccccc1")
63.6
>>> observed("O=C(CCl)NNc1nccc(Nc2ccc(S(=O)(=O)Nc3ccncc3)cc2)n1")
25.6
>>> observed("S=c1[nH]c(=S)c2c(-c3ccccc3)c(-c3ccccc3)oc2[nH]1")
119
>>> observed("O=C(Nc1ccc(Cl)cc1)Oc1c(Cl)c(Cl)c(Cl)c(Cl)c1Cl")
92.6
>>> observed("O=C1NC(=O)/C(=C/c2c(-c3ccccc3)nc3sc(COc4ccccc4)nn23)S1")
92.8
